assay: Cmax in Sprague-Dawley rat at 2 mg/kg, ip; format: ADME, organism-based; design: dose 2 mg/kg, route intraperitoneal; details: in vivo
measured_metric: Cmax

smiles_record	reading
Nc1ccccc1NC(=O)c1ccc(Cn2cc(-c3ccc(C(=O)NCc4cccnc4)cc3)nn2)cc1	745 ng/mL

----------
system: HepG2; assay: cells; assay type: functional, cell-based; settings: Homo sapiens, HepG2, 72 h
Define the label as true when IC50 is strictly less than 3 µM and as false in all remaining cases.

smiles_record	class
Nc1ccccc1NC(=O)c1ccc(CNC(=O)c2cc3ccncc3[nH]2)cc1	false
CC(C)(C)OC(=O)Nc1ccc(CNC(=O)Nc2ccc(C(=O)Nc3ccccc3N)cc2)cn1	false
Nc1ccccc1NC(=O)c1ccc(NC(=O)NCc2ccc(Cl)nc2)cc1	true
Nc1ccccc1NC(=O)c1ccc(CCn2cc(-c3cccnc3)nn2)cc1	false
Cc1ccc(CNC(=S)Nc2ccc(C(=O)Nc3ccccc3N)cc2)cn1	false

----------
target: Nicotinamide phosphoribosyltransferase (Homo sapiens); experiment: Inhibition of human recombinant NAMPT using NAM as substrate preincubated for 5 mins followed by substrate addition measured after 15 mins by fluorescence assay
Sequence (P43490 whole entry): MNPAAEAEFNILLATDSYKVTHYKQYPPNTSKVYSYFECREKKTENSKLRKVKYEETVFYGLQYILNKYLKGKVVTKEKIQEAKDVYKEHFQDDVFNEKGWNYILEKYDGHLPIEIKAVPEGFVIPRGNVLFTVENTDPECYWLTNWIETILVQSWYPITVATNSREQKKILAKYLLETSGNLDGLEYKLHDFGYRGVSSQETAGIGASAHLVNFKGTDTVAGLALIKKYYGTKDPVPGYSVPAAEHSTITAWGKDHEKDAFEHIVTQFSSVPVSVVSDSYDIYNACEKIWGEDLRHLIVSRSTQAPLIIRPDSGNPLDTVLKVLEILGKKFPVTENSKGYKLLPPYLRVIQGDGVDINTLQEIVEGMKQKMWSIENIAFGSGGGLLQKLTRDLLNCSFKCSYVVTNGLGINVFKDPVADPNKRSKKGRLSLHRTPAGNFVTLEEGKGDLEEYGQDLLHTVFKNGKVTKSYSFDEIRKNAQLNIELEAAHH
The following molecules are shown together with reported IC50 values.

smiles_record	IC50
Nc1ccccc1NC(=O)c1ccc(CNC(=O)c2cc3ccncc3[nH]2)cc1	> 2 µM
Nc1ccccc1NC(=O)c1ccc(NC(=S)NCc2nc3ccccc3[nH]2)cc1	> 2 µM
Nc1ccccc1NC(=O)c1ccc(CNC(=O)c2ccn3ccnc3c2)cc1	> 2 µM
Nc1ccccc1NC(=O)c1ccc(NC(=S)NCc2cccc(Cl)c2)cc1	> 2 µM
Nc1ccccc1NC(=O)c1ccc(NC(=O)/C(Cl)=C(\Cl)c2cccnc2)cc1	> 2 µM
Nc1ccccc1NC(=O)c1ccc(CNC(=O)c2ccc3cncn3c2)cc1	> 2 µM
Nc1ccccc1NC(=O)c1ccc(NC(=O)NCc2cccnc2)cc1	0.55 µM
Cc1ccc(CNC(=S)Nc2ccc(C(=O)Nc3ccccc3N)cc2)cn1	> 2 µM
Nc1ccccc1NC(=O)c1ccc(NC(=S)NCc2ccccc2F)cc1	> 2 µM
Nc1ccccc1NC(=O)c1ccc(NC(=S)NCc2cncc(Br)c2)cc1	> 2 µM
Nc1ccccc1NC(=O)c1ccc(NC(=S)NCc2ccc3c(c2)OCO3)cc1	> 2 µM
Nc1ccccc1NC(=O)c1ccc(CCn2cc(-c3cccnc3)nn2)cc1	0.19 µM
Nc1ccccc1NC(=O)c1ccc(Cn2cc(-c3ccc(NC(=O)NCc4cccnc4)cc3)nn2)cc1	0.018 µM
Nc1ccccc1NC(=O)c1ccc(NC(=S)NCc2ccc(F)cc2)cc1	> 2 µM
Nc1ccc(CNC(=S)Nc2ccc(C(=O)Nc3ccccc3N)cc2)cn1	> 2 µM
Nc1ccccc1NC(=O)c1ccc(NC(=O)NCc2ccc(Cl)nc2)cc1	> 2 µM
Nc1ccccc1NC(=O)c1ccc(NC(=S)NCc2cccnc2)cc1	0.116 to 0.12 µM
Nc1ccccc1NC(=O)c1ccc(NC(=S)NCc2cccc(F)c2)cc1	> 2 µM
Nc1ccc(CNC(=O)Nc2ccc(C(=O)Nc3ccccc3N)cc2)cn1	> 2 µM
Nc1ccccc1NC(=O)c1ccc(CNC(=O)c2cc3cnccc3s2)cc1	> 2 µM
Nc1ccccc1NC(=O)c1ccc(CNC(=O)c2ccc3cn[nH]c3c2)cc1	> 2 µM
Nc1ccccc1NC(=O)c1ccc(NC(=O)/C=C/c2cccnc2)cc1	0.23 µM

----------
test system: HCT-116; experiment: cells; assay type: functional, cell-based; settings: Homo sapiens, HCT-116, 72 h
pIC50: −log10 of the molar value.
The following compounds are shown together with reported pIC50 values.
measured_metric: pIC50

smiles_record	comparison_operator	reading
Nc1ccccc1NC(=O)c1ccc(CNC(=O)c2cc3cccnc3[nH]2)cc1	=	5.00
Nc1ccccc1NC(=O)c1ccc(Cn2cc(-c3ccc(NC(=O)NCc4cccnc4)cc3)nn2)cc1	<	4.00
Nc1ccccc1NC(=O)c1ccc(CNC(=O)c2ccc3cn[nH]c3c2)cc1	=	4.74
Nc1ccccc1NC(=O)c1ccc(NC(=S)NCc2cncc(Br)c2)cc1	=	5.04
Cc1ccc(CNC(=S)Nc2ccc(C(=O)Nc3ccccc3N)cc2)cn1	=	4.96
O=S(=O)(c1ccc(NC(=S)NCc2cccnc2)cc1)N1CCCCC1	=	4.39
CC(C)(C)OC(=O)Nc1ccc(CNC(=O)Nc2ccc(C(=O)Nc3ccccc3N)cc2)cn1	=	4.00

----------
The following compounds are shown together with reported pIC50 values.
system: HepG2; test: cells; assay type: functional, cell-based; details: Homo sapiens, HepG2, 72 h
pIC50: −log10 of the molar value.

smiles_record	system_name	pIC50
Nc1ccc(CNC(=O)Nc2ccc(C(=O)Nc3ccccc3N)cc2)cn1	HepG2	5.51
Nc1ccccc1NC(=O)c1ccc(Cn2cc(-c3ccc(C(=O)NCc4cccnc4)cc3)nn2)cc1	HepG2	5.35
Nc1cccc(CNC(=S)Nc2ccc(C(=O)Nc3ccccc3N)cc2)c1	HepG2	5.48
Nc1ccccc1NC(=O)c1ccc(NC(=O)/C(Cl)=C(\Cl)c2cccnc2)cc1	HepG2	6.25
Nc1ccccc1NC(=O)c1ccc(Cn2cc(-c3ccc(NC(=O)NCc4cccnc4)cc3)nn2)cc1	HepG2	5.09
